These data points were gathered from patent US20040142920A1.

target desc: Human CCR5 (Homo sapiens)
Sequence (P51681 whole entry): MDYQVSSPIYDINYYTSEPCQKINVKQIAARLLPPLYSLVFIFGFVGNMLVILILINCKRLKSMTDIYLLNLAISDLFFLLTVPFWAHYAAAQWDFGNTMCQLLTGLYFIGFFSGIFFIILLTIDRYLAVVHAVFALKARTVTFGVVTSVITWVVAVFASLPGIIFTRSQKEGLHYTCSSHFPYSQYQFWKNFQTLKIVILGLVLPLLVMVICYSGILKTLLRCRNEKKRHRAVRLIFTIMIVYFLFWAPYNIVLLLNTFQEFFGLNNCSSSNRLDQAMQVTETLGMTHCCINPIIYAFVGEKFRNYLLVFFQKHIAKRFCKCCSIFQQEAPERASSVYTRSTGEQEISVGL
test summary: CCR5 membrane binding assay (125-I MIP-1α radioligand)
pIC50: −log10 of the molar value.
measurement name: pIC50

// molecule Cc1nc(CN(c2ccccc2)C2CCN(C3(C)CCN(C(=O)c4c(C)cc[n+]([O-])c4C)CC3)CC2)cs1 [Example 83] , assay Human CCR5 (Homo sapiens), pIC50 value: 8.52 to 8.70

###

target desc: Human CCR5 (Homo sapiens)
test summary: CCR5 functional assay - Ca2+ mobilization in CHO K1 transfectants
Type: cell-based
Set-up: expressed in transfected cells
experimental setup: CCR5-transfected CHO K1 cells; agonist MIP-1α, MIP-1β, HCC-1(9-74) or RANTES; Fluo3 or Fluo4; read-out: IC50, inhibition of Ca2+ flux
Experimental: b) CCR5 Functional Assay—Ca^2+ Mobilization These CCR5 transfectants are used for assessing Ca^2+ mobilization in response to stimulation by the CCR5 ligands MIP-1α, MIP-1β, HCC-1(9-74) or RANTES. For the assay the cells are loaded with a Ca^2+-sensitive fluorochrome (Fluo3 or Fluo4). Ligand concentrations between 0.01-100 nM are used to induce Ca^2+ mobilization which is monitored in a fluorometer with appropriate settings. […]
measurement name: IC50 (nM)
Report the value in nM with no unit label.

// compound CC1(N2CCC(N(c3ccccc3)c3ccccc3)CC2)CCN(C(=O)c2c(Cl)c[n+]([O-])cc2Cl)CC1 , assay Human CCR5 (Homo sapiens), IC50 value: 9
